- System: SK-MEL-5
- EXPERIMENTAL_DETAILS: NCI tumour cell line growth inhibition, 48 h
Active and inactive are the calls of the source. Cut-off read from the data, not from the text of the source: active = GI50 up to about 1.1 µM and inactive = higher.
Field: GI50. Provide a value for each of the compounds that follow.

Q) # lookup: GI50 of Cc1cc(Cl)ccc1NC(=O)C(=O)C(C(=O)c1ccc2ccccc2c1)C1OC(=O)c2ccccc21 (stereo unspecified)
A) 12.7 µM (inactive)

Q) So what does the record say about GI50 for CC(=O)OCC1OC(n2c(=S)n(-c3ccccc3)c(=O)c3cc(Br)cc(Br)c32)C(OC(C)=O)C(OC(C)=O)C1OC(C)=O (stereo unspecified) ?
A) 91.6 µM (inactive)

Q) Item under review: O=c1[nH]c(=O)c2c3n(cc2[nH]1)CCCCC3 . Reported GI50?
A) > 100 µM (inactive)

Q) What value of GI50 has been reported for the following compound? CN(C)CC1CCC/C(=C\c2ccc(OC(=O)/C=C/c3ccc(Cl)c(Cl)c3)cc2)C1=O (stereo unspecified)
A) 4.09 µM (inactive)

Q) # get_value(readout='GI50', item= O=C1Nc2ccccc2/C1=N/NC(=S)Nc1ccc([N+](=O)[O-])cc1 )
A) 10.4 µM (inactive)

Q) For the compound NC(=O)/C=c1/c2ccccc2n2nc3ccccc3c12 , what GI50 is on record?
A) 35.6 µM (inactive)

Q) What does the data say about its GI50? Entry: C=CCC1(O)c2cccc(O)c2C(=O)c2cccc(O)c21 (stereo unspecified)
A) 10.7 µM (inactive)

Q) Entry under review: COC1=CC(=O)C2=C(C[C@@]3(C)C(=C2)C(CO)=CC[C@H]3O)C1=O . Reported GI50?
A) 17.4 µM (inactive)

Q) Field request: GI50 | item: Cc1csc(NNC(=O)Nc2ccccc2)n1
A) > 100 µM (inactive)

Q) For the compound shown here, Oc1ccc(O)c(-n2cccn2)c1-n1cccn1 , give the reported GI50.
A) > 100 µM (inactive)

Q) What does the record list as GI50 for CCOC(=O)NN(C(=O)OCC)C(C(=O)c1ccccc1)N(NC(=O)OCC)C(=O)OCC ?
A) > 100 µM (inactive)

Q) For the compound shown here, CCCc1c[nH]c(-c2ccc(-c3cc(CCC)c(C=O)[nH]3)s2)c1 , give the reported GI50.
A) 16.9 µM (inactive)

Q) Field request: GI50 | item: CC1=NN(C(=O)CC(=O)Nc2cccc(Cl)c2)C(=O)C1/N=N\c1ccc(S(=O)(=O)c2ccc(/N=N/C3C(=O)N(C(=O)CC(=O)Nc4cccc(Cl)c4)N=C3C)cc2)cc1 (stereo unspecified)
A) 40.8 µM (inactive)

Q) For the compound CS(=O)(=O)Nc1ccc2c(c1)N(S(C)(=O)=O)CC2COS(C)(=O)=O (stereo unspecified) , what GI50 is on record?
A) 18.9 µM (inactive)

Q) Look up GI50 for this compound: CCc1n[nH]c(=O)n1NC(=O)/C=C\C(=O)O
A) > 100 µM (inactive)

Q) Which GI50 value is on record for COC(=O)c1ccc(Oc2nc3ccc(C(F)(F)F)cc3nc2-c2ccccc2)cc1 ?
A) > 100 µM (inactive)

Q) Name the recorded GI50 for O=C(O)CNS(=O)(=O)c1ccc(NC(=O)c2ccccc2[N+](=O)[O-])cc1 .
A) > 100 µM (inactive)

Q) Which GI50 reading was recorded for the compound CCOC(=O)C(NC(=O)c1ccccc1)(Nc1ccc(S(=O)(=O)Nc2ccc(OC)nn2)cc1)C(F)(F)F (stereo unspecified) ?
A) > 100 µM (inactive)

Q) Any idea what its GI50 is? The compound is O=P(O)(O)CN1CCNCCN(CP(=O)(O)O)CCNCC1
A) 4.76 µM (inactive)

Q) Would you mind telling me what GI50 value was observed for O=c1[nH]c(=O)n(C2CC(O)C(CO)O2)cc1C#Cc1cc(C(F)(F)F)cc(C(F)(F)F)c1 (stereo unspecified) ?
A) > 27.4 µM (inactive)

Q) # lookup: GI50 of C#CCN(N=O)C(=O)ON1C(=O)CCC1=O
A) > 100 µM (inactive)
